# test_protocol: Stability of dimers in cellular extract (CEM cells), HPLC
# Type: in vitro ADME
# test_context: human, cem cell extract, 37° C., C0 =5×10^-5 M, read-out: t1/2 (time at the end of which half of the starting product has decomposed)
compounds and their reported half-life at 50 µM
# output: bare number, implied unit min

## Task Reported half-life at 50 µM, compound CC(=O)SCCSP(=O)(OC[C@H]1O[C@@H](n2cc(C)c(=O)[nH]c2=O)C[C@@H]1O)O[C@H]1C[C@H](n2cc(C)c(=O)[nH]c2=O)O[C@@H]1CO (stereo partly drawn) [Compound 4b] : ____
## Result 10

Others:
## Task Reported half-life at 50 µM, compound Cc1cn([C@H]2C[C@H](OP(=O)(OC[C@H]3O[C@@H](n4cc(C)c(=O)[nH]c4=O)C[C@@H]3O)SCOC(=O)C(C)(C)C)[C@@H](CO)O2)c(=O)[nH]c1=O (stereo partly drawn) [Compound 4a] : ____
## Result 40
